Experiment: Human HepG2 cell viability assay in 384 well format
Assay type: toxicity, cell-based
Design: dose 125 nL, time 70.5 hour; concentration not given beside the values
Conditions: HepG2 cells, read-out: Inhibition

{"compound": "O=C(N[C@]12CC1CN(C(=O)c1ccco1)C2)c1ccoc1 (stereo not given in full)", "cytotoxicity at 70.5 h": "-7.38%"}
{"compound": "c1ccc(OCCCN2CCOC(CNc3cccnn3)C2)cc1 (stereo not given)", "cytotoxicity at 70.5 h": "-6.97%"}
{"compound": "C/N=C1/c2cc3cc(OC)ccc3n2CCN1C", "cytotoxicity at 70.5 h": "-0.795%"}
{"compound": "Cc1noc([C@H]2C[C@@H]3CCN(C(=O)N(C)C)C[C@H]3O2)n1", "cytotoxicity at 70.5 h": "-4.62%"}
{"compound": "Cc1ccc(CN2CCC3(CC2)CCN(C(=O)c2cccnc2)C3)o1", "cytotoxicity at 70.5 h": "-5.87%"}
{"compound": "O=C1N(CC2CCCCC2)CCCC1(O)CN1CCc2[nH]ncc2C1 (stereo not given)", "cytotoxicity at 70.5 h": "-7.48%"}
{"compound": "Cc1nsc(NCc2ccc(CS(=O)(=O)NC(C)C)cc2)n1", "cytotoxicity at 70.5 h": "-9.39%"}
{"compound": "CCCn1cnnc1CNCc1c[nH]nc1-c1ccc(F)cc1", "cytotoxicity at 70.5 h": "-1.41%"}
{"compound": "Cn1ccc2ccc(C(=O)N3CC[C@@]4(O)CCCC[C@H]4C3)cc21", "cytotoxicity at 70.5 h": "7.95%"}
{"compound": "Cc1ncc(CNc2cnccc2CO)s1", "cytotoxicity at 70.5 h": "6.67%"}
{"compound": "CN1CCN(CCCNS(=O)(=O)Cc2ccccc2F)CC1", "cytotoxicity at 70.5 h": "-0.252%"}
{"compound": "COc1ccc(-c2cnc(CN3CCCC3Cn3cncn3)o2)cc1 (stereo not given)", "cytotoxicity at 70.5 h": "-6.4%"}
{"compound": "O=C(NCC1CCOC1)N1CCN(Cc2ccc3c(c2)CCO3)CC1 (stereo not given)", "cytotoxicity at 70.5 h": "-4.97%"}
{"compound": "Cc1cc(C)n(C2CCN(Cc3nc4ccccc4n3C)CC2)n1", "cytotoxicity at 70.5 h": "1.81%"}
{"compound": "O=C(CCN1C[C@@H]2CC[C@H]1C2)N1CCN(c2cccc(Cl)c2)C(=O)C1", "cytotoxicity at 70.5 h": "-0.743%"}
{"compound": "CNC(=O)CN1C(=O)CCC12CCCN(CCc1ccccc1)C2 (stereo not given)", "cytotoxicity at 70.5 h": "27.8%"}
{"compound": "Cc1ccc(NC(=O)NCC2(N3CCOCC3)CCSC2)c(C)c1 (stereo not given)", "cytotoxicity at 70.5 h": "8.25%"}
{"compound": "CC(=O)NCCNC(=O)c1cc(COc2ccccc2)[nH]n1", "cytotoxicity at 70.5 h": "1.84%"}
{"compound": "CSCC(=O)Nc1nccn1Cc1ccc(Br)cc1", "cytotoxicity at 70.5 h": "-3.91%"}
{"compound": "CN(C)C(=O)CC1CC2(CCN(c3ncccn3)CC2)c2ccccc21 (stereo not given)", "cytotoxicity at 70.5 h": "-0.293%"}

* * *

Property: cytotoxicity at 70.5 h; scope: individual molecules
Assay: Human HepG2 cell viability assay in 384 well format
Format: toxicity, cell-based
Design: dose 125 nL, time 70.5 hour; concentration not given beside the values
Conditions: HepG2 cells, read-out: Inhibition
reportedProperty: cytotoxicity at 70.5 h (%)

{"molecule": "CN(C)c1ncc(-c2cncn2CCc2ccc3c(c2)OCCO3)cn1", "reportedProperty": "cytotoxicity at 70.5 h", "measuredResult": -7.82}
{"molecule": "COc1cccc(CN2CCCC2Cn2nc(C)nc2C)c1 (stereo unspecified)", "reportedProperty": "cytotoxicity at 70.5 h", "measuredResult": 3.03}
{"molecule": "O=C1CC(c2ccc(C(F)(F)F)cc2)c2c(n3ccsc3nc2=O)N1 (stereo unspecified)", "reportedProperty": "cytotoxicity at 70.5 h", "measuredResult": -22.1}
{"molecule": "Cc1noc(CNC(=O)N2CCN(c3nc(C)c(C)s3)CC2)n1", "reportedProperty": "cytotoxicity at 70.5 h", "measuredResult": -3.61}
{"molecule": "COc1c(CNC2CCOc3ccccc32)c(C(C)C)nn1C (stereo unspecified)", "reportedProperty": "cytotoxicity at 70.5 h", "measuredResult": -7.12}
{"molecule": "O=c1oc(-c2cccs2)nn1CC(O)c1ccc2c(c1)CCC2 (stereo unspecified)", "reportedProperty": "cytotoxicity at 70.5 h", "measuredResult": 14.5}
{"molecule": "CC(C)c1noc(CCCC(=O)NCCOc2ccccc2)n1", "reportedProperty": "cytotoxicity at 70.5 h", "measuredResult": -8.16}
{"molecule": "CCC(O)CN1CCN(C(=O)c2cccc(CC#N)c2)CC1 (stereo unspecified)", "reportedProperty": "cytotoxicity at 70.5 h", "measuredResult": 1.07}
{"molecule": "O=S(=O)(NCc1cc2n(n1)CCNC2)c1ccc(OC(F)(F)F)cc1", "reportedProperty": "cytotoxicity at 70.5 h", "measuredResult": -16.5}
{"molecule": "COCc1nc(C(=O)NS(=O)(=O)c2ccc(C)s2)cs1", "reportedProperty": "cytotoxicity at 70.5 h", "measuredResult": -4.27}
{"molecule": "Cc1oc(C(=O)O)cc1S(=O)(=O)Nc1ccc(Cl)c(Cl)c1", "reportedProperty": "cytotoxicity at 70.5 h", "measuredResult": -3.75}

All figures here come from ChEMBL document CHEMBL3507680.
